This collection of values is drawn from the Deep4Chem optical property database.

assay: solvent given as SMILES; details: in O
Measured Property: absorption maximum (nm)

[I] NC(=O)Cc1cccc2ccccc12
[II] CC1(C)C(/C=C/C=C/C=C/C=C2/N(CCCCCC(=O)O)c3ccc(S(=O)(=O)[O-])cc3C2(C)C)=[N+](CCCCCC(=O)O)c2ccc(S(=O)(=O)[O-])cc21
[III] CCN(CC)c1ccc2c(c1)C(C)(C)C(=O)C=C2
// query Lab note: rank above entries, absorption maximum ascending. List the labels, following the order given in the request.
// result I, III, II
(I: 280 nm, III: 429 nm, II: 748 nm)

[a] O=S(=O)([O-])c1cccc2c(O)cccc12
[b] CCN1CCCc2cc3c(cc21)Oc1cc2c(cc1=N3)C(CS(=O)(=O)[O-])CC(C)(C)[N+]=2CCCC(=O)[O-] (stereo unspecified)
// query // pick larger absorption maximum from pair: a vs b Refer to your chosen entry by its label in the reply.
// result b
